Hello, the source for this data is PubChem BioAssay (Tox21), in case you need it.

Assay: qHTS RealTime-Glo MT Cell Viability Assay in HepG2 cells - 32 hour (AID 1224877); further: nearly all actives have a fitted effect of over 55% in size
Details: RealTime-Glo luminescence; series mostly up to 76.8 µM
Inconclusive results are not listed. Calls of active or inactive are those of the source. The call rests on the fitted dose curve; in most records, active means well fitted cell-killing curve with a large enough effect in the repeat runs; inconclusive means weak or mixed curves; inactive means flat fitted curve, though single readings scatter.
Field 'call' accepts active, inactive

Reference set (5 entries):
What did this assay record as the result for CCCOc1sc(C(=O)N2CCC(c3cc(CN)ccc3F)CC2)c(C)c1Br ? active

What did this assay record as the result for O[C@@H](c1cc(C(F)(F)F)nc2c(C(F)(F)F)cccc12)[C@H]1CCCCN1 ? active

What did this assay record as the result for C/C=C/C(=O)C1=C(C)CCCC1(C)C ? inactive

What did this assay record as the result for C[C@@]12C(=O)OC(=O)[C@]1(C)C1CCC2O1 ? active

What did this assay record as the result for CCc1ccc(C)nc1 ? inactive

Next:
What did this assay record as the result for O=CC1CC1 ? inactive

What did this assay record as the result for S=P(N1CC1)(N1CC1)N1CC1 ? inactive

What did this assay record as the result for C[C@]12CC[C@H]3C(=CCc4cc(O)ccc43)[C@@H]1CCC2=O ? inactive

What did this assay record as the result for CC(C)OC(=O)c1cc(C(=O)OC(C)C)cc([N+](=O)[O-])c1 ? inactive

What did this assay record as the result for Cc1c(C)n(Cc2ccccc2)c2ccc(C(=O)OCCN(C)C)cc12 ? active

What did this assay record as the result for C/C=C/CO ? inactive

---

Assay: Caspase-3/7 induction in CHO-K1 cells by small molecules, qHTS cell viability counter screen (AID 1346979); further: nearly all actives have a fitted effect of over 35% in size
Conditions: CellTiter-Fluor fluorescence, 17 h; series mostly up to 92.4 µM
Inconclusive results are not listed. Active and inactive are the calls of the source. Calls come from the whole dose curve; as a rule, active = well fitted cell-killing curve with a large enough effect in the repeat runs; inconclusive = weak or mixed curves, or effect the other way; inactive = no such curve, though single readings can be large or run the other way.
Field 'call' accepts label 1 = active, label 0 = inactive

Reference set (4 entries):
What did this assay record as the result for CCCC(CC)CCCCCCCN (stereo unspecified) ? label 0

What did this assay record as the result for CCC1(c2cnc[nH]2)Cc2ccccc2C1 ? label 0

What did this assay record as the result for Cc1cnccn1 ? label 0

What did this assay record as the result for COC(=O)NCCC[Si](OC)(OC)OC ? label 0

Next:
What did this assay record as the result for O=C1OC(=O)c2cccc3cccc1c23 ? label 0

---

Assay: qHTS assay to identify small molecule antagonists of the retinoid acid receptor (RAR) signaling pathway - cell viability counter screen (AID 1159551); further: nearly all actives have a fitted effect of over 35% in size
Conditions: C3RL4 cells viability, ATP luminescence (CellTiter-Glo), 6 h; series mostly up to 92.4 µM
Records with an inconclusive call do not appear. Calls of active or inactive are those of the source. Calls follow the shape of the dose curve; as a rule, active = well fitted cell-killing curve with a large enough effect in the repeat runs; inconclusive = weak or mixed curves, or effect the other way; inactive = flat fitted curve, though single readings scatter.
Field 'call' accepts 1 (yes) (active), 0 (no) (inactive)

Reference set (6 entries):
What did this assay record as the result for Cc1oc(-c2ccccc2)nc1CCOc1ccc(C[C@H](Nc2ccccc2C(=O)c2ccccc2)C(=O)O)cc1 ? 0 (no)

What did this assay record as the result for CN(C)c1ccc(N=Nc2ccccc2C(=O)O)cc1 ? 0 (no)

What did this assay record as the result for CC(C)=CCCC(C)CCOC(=O)C(C)C (stereo unspecified) ? 0 (no)

What did this assay record as the result for CC(C)CCOCCC(C)C ? 0 (no)

What did this assay record as the result for CC1CCCCN1CCCOC(=O)c1ccc(OC2CCCCC2)cc1 (stereo unspecified) ? 0 (no)

What did this assay record as the result for CC1CCCNC1 (stereo unspecified) ? 0 (no)

Next:
What did this assay record as the result for Clc1ccccc1CN1CCc2sccc2C1 ? 0 (no)

What did this assay record as the result for COc1cccc(O)c1 ? 0 (no)

What did this assay record as the result for C[C@@H]1CC[C@H]2C(C)(C)[C@H]3C[C@@]12CC[C@@]3(C)O ? 0 (no)

What did this assay record as the result for C[Si](C)(C)Cl ? 0 (no)

What did this assay record as the result for C=C1C(C)(C)[C@@]2(Cl)C(Cl)[C@]1(Cl)C(Cl)(Cl)C2(Cl)Cl (stereo partly specified) ? 0 (no)

What did this assay record as the result for CC(C)(C)c1cc(CCC(=O)NCCCCCCNC(=O)CCc2cc(C(C)(C)C)c(O)c(C(C)(C)C)c2)cc(C(C)(C)C)c1O ? 0 (no)

What did this assay record as the result for CCCCN(C)C ? 0 (no)

What did this assay record as the result for C=C(c1ccc(C(=O)O)cc1)c1cc2c(cc1C)C(C)(C)CCC2(C)C ? 1 (yes)

What did this assay record as the result for CC(C)(C)c1n[nH]c(=O)n(N)c1=O ? 0 (no)

What did this assay record as the result for Cc1cc2c(C(C)C)c(O)c(O)c(C=O)c2c(O)c1-c1c(C)cc2c(C(C)C)c(O)c(O)c(C=O)c2c1O ? 0 (no)
